Data credit: PubChem BioAssay (NCI)

Each entry below carries its recorded growth inhibition.
Assay: NCI Yeast Anticancer Drug Screen. Data for the mec2-1 strain (AID 157)
Settings: S. cerevisiae mec2-1 strain, at 50.0 µM, hits give high values
This is part of a sample that, as a whole, favours compounds with a hit. Of some 79,000 tested, about 15% had one in any assay.
readout type: growth inhibition (%)

CCc1ccc(/C=C/C(=O)C(C)CN(C)C)cc1 (stereo unspecified) :: 26.1
C1=CCC(C(Cc2ccccc2)N2CCCCC2)CC1 (stereo unspecified) :: 1
CN(C)c1ccc(/C=C2\N=C(c3ccc([N+](=O)[O-])cc3)OC2=O)cc1 :: -6.75
O=C(NC(=O)C1(C(=O)O)CCCC1)Nc1ccccc1 :: -7.05
COC(=O)c1ccccc1OC(=S)N(C)C :: -11.4
Cn1[nH]c(=O)c2ncccc2c1=O :: -10.1

----------
Assay: NCI Yeast Anticancer Drug Screen. Data for the mec2-1 strain (AID 157)
Conditions: S. cerevisiae mec2-1 strain, at 50.0 µM, hits give high values
Compounds without any hit were thinned out: in the full panel of roughly 79,000, 15% have a hit. Calls of active or inactive are those of the source. No stated cut-off is given here; in the data, active means growth inhibition above about 70%; inactive means the rest.
readout type: growth inhibition

O=C(C/C(=N\NC(=O)C[n+]1ccccc1)C(=O)Nc1nc2ccc([N+](=O)[O-])cc2s1)CC(c1ccccc1)c1c(O)c2ccccc2oc1=O (configuration not stated) :: -15% (inactive)
c1ccc2c(-c3ccncc3)c3ccccc3cc2c1 :: 2.6% (inactive)
CC(C)(CCN)[N+](=O)[O-] :: 9.15% (inactive)
c1cnc(NC(Nc2ncccn2)c2ccco2)nc1 :: -8.9% (inactive)
COc1cc2c[n+](C)c(-c3ccc(Cl)c(Cl)c3)c(OC)c2cc1OC :: 8.15% (inactive)
COc1cccc(-c2nc(-c3cnccn3)n(C3OC(CO)C(O)C3O)n2)c1 (configuration not stated) :: -22.4% (inactive)
CCc1c(C)c2cc(N)ccc2[nH]c1=O :: 24.1% (inactive)
O=C1OC2(C(F)(F)F)Oc3ccccc3CN2C12CCCCC2 (configuration not stated) :: 35% (inactive)
CCOC(=O)CCC(NC(=O)c1ccc(Nc2cnc3ccc(C(F)(F)F)cc3n2)cc1)C(=O)OCC (configuration not stated) :: 6.45% (inactive)
CC(C)CN1CC(=O)N2Cc3ccccc3CN2C(=O)C1 :: -10.2% (inactive)
CCCCCN1C(=O)N=NC1=S :: 8.15% (inactive)
CC(=O)NC1C(=O)N(c2ccccc2)N=C1C (configuration not stated) :: -6.05% (inactive)

----------
Test: NCI Yeast Anticancer Drug Screen. Data for the rad50 strain (AID 155);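 further: 0% = growth of vehicle-only cultures of the same strain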
Details: S. cerevisiae rad50 strain growth inhibition; at 50.0 µM; hits give high values
The panel holds about 79,000 compounds, 15% with a hit somewhere; the sample as a whole holds those more often.
readout type: growth inhibition (%)

O=c1cc(-c2ccccc2)oc2c(-c3cc(Cl)cc4c(=O)cc(-c5ccccc5)oc34)cc(Cl)cc12 :: -6.65
NC(=S)N=Nc1c(O)[nH]c2ccccc12 :: 12.8
CC(=O)c1ccc(N2CCCCC2)cc1 :: -7.8
CCc1cccc(C(C)(C)C)c1NC(=S)N/C=C(/C#N)C(N)=O :: 8.2
O=c1ccnc2c1ccc1[nH]cccc12 :: 1.35
O=C(Nc1cccc(Cc2cccc(NC(=O)c3ccccc3)c2)c1)c1ccccc1 :: 5.65

----------
Assay: NCI Yeast Anticancer Drug Screen. Data for the mlh1 rad18 strain (AID 175)
Conditions: S. cerevisiae mlh1 rad18 strain growth inhibition; at 50.0 µM; hits give high values
Procedure: Growth inhibition of yeast strains with defined genetic alterations is measured as a screen for potential anti-cancer activity. Selected strains with alterations in DNA damage repair or cell cycle control were exposed to compounds and growth inhibition was measured relative to vehicle treated controls. The strain used in this assay is mlh1 rad18
About 79,000 compounds went through this panel and 15% of them were active in at least one assay; those are over-represented in the sample as a whole.
Each entry below carries its recorded growth inhibition.
readout type: growth inhibition (%)

Brc1cccc[n+]1CCC[n+]1ccccc1Br :: 15.8
COc1cc2c3c(c1)-c1c(ccc(OC)c1Oc1nnnn1-c1ccccc1)CC3N(C)CC2 (centres undefined) :: 80.5
O=C(CCN1C(=O)c2ccccc2C1=O)NCS(=O)(=O)O :: -17.5
O=C1CN(c2ccccc2)Cc2nc(Cl)ccc2N1 :: 72.5
Cc1cc(C)c2c(-c3ccccc3)cc(=O)[nH]c2c1 :: -51.1
CCOC(=O)/C(=C\c1ccc[nH]1)C(=O)c1ccccc1 :: 9.05
Cc1ccc(S(=O)(=O)N2CCCC(=O)c3ccccc32)cc1 :: 11.3
CC(C)=C(C)CCC(C)CC(C)O (centres undefined) :: -5.85
O=c1[nH]cnc2nn(C3OC(CO)C(O)C3O)cc12 (centres undefined) :: -18.9
COc1ccc(Nc2cnc3cc(N)ccc3n2)cc1OC :: 1.7
CC(=O)NC(CSCN(C)c1nc(N(C)C)nc(N(C)C)n1)C(=O)O (centres undefined) :: 13.8
Cc1ccc(C2C(Cl)C(=O)N2NC(=O)c2ccc(N)cc2)cc1 (centres undefined) :: -42
CSC(=N\N=C\c1c(F)cccc1Cl)/N=C/N(C)C :: 4
CC(=O)[CH-]C(=O)Nc1ccccc1.CC(=O)[CH-]C(=O)Nc1ccccc1.CC[O-].CC[O-].[Ti+4] :: 12.7
Nc1cccc(N=[N+]([O-])c2cccc(N)c2)c1 :: 27.6
Brc1ccc(Br)s1 :: 0.4
C[C@@H]1S[C@H](c2c(F)cccc2Cl)n2c1nc1ccccc12 :: 78.1
c1ccc(CC2COC(c3cccs3)=N2)cc1 (centres undefined) :: 9
COC(=O)/C(=C/Cl)NC(C)=O :: 5.8
NNC(=O)c1oc2ccccc2c1CN(CCO)CCO :: -5.1
Cc1cc(=O)[nH]c(Nc2nc3cc(C)c(C)cc3[nH]2)n1 :: -8.4
N#Cc1nccc2ccccc12 :: -13.4
CC1=NN2C(c3ccc(C)cc3)=CSC2=NC(C)(C)C1 :: -1.1
NC(=Nc1ccccc1)c1ccc(Cl)cc1 :: 87.7
Cc1n[nH]c(=O)n1Nc1ccccc1 :: 6.6
O=C(O)CCc1c[nH]c(=S)[nH]1 :: -1.7
N=c1oc2ccccc2cc1-c1nc2ccccc2c(=O)[nH]1 :: 17.3
CCOC(=O)NC(Nc1ncccn1)(C(=O)OCC)C(F)(F)F (centres undefined) :: -34.9
COc1cc(/C=C(\C#N)C(N)=O)cc(Br)c1O :: -7.35
CN1/C(=C/C=C/C=C/C=C2C(=O)c3ccccc3C2=O)C(C)(C)c2ccccc21 :: 26.8
CC(=O)OC/C(=C/C#N)C1CCC2C3CCC4CC(OC(C)=O)CCC4(C)C3CCC12C (centres undefined) :: 57.5
O=C(Nc1cccc([N+](=O)[O-])c1)N1CCCC1 :: -20.6
OC1c2ccccc2C(O)c2c1ccc1c2CN(Cc2ccccc2)CC1 (centres undefined) :: 33.2
O=C(Nc1cccc2ccccc12)c1ccccc1F :: 11.8
O=C(NCc1ccncc1)Nc1ccc(Cc2ccc(NC(=O)NCc3ccncc3)cc2)cc1 :: 4.25
CCCCCCCCCCCCCOCC(=O)OC :: 1.6
COC(=O)c1nc[nH]c1C(=O)OC :: 12.6
O=S(=O)(Nc1cccc(C2=NCCN2)c1)c1cccc2c(S(=O)(=O)Nc3cccc(C4=NCCN4)c3)cccc12 :: -22.1
[Mn+2].[NH-]CC(=O)NC(Cc1ccccc1)C(=O)O.[NH-]CC(=O)NC(Cc1ccccc1)C(=O)O (centres undefined) :: -8
NC(CO)C(O)c1ccc([N+](=O)[O-])cc1 (centres undefined) :: -13.7
O=C1NC(=O)C(c2ccc(Cl)c(Cl)c2)N1 (centres undefined) :: -3.55
CC(C)(C)C(OC(=O)Cc1ccccc1)c1ccc2c(c1)OCO2 (centres undefined) :: -12.1
c1ccc2c3nnc(c2c1)SCCSCCCSCCS3 :: -30.4
CC(C)C1=C(Cc2ccccc2)C(=O)O/C1=C\c1ccc(O)c(Cl)c1 :: -20.1
Cn1c(=O)c2c(ncn2CC(=O)O)n(C)c1=O :: 19.9
CC12CCCCC1C(C(C)(C)OC(=O)c1ccc([N+](=O)[O-])cc1)CC2 (centres undefined) :: 21.1
COC(=O)c1ccc(C(=O)OC)c2nn3c(N)nnc3nc12 :: 2.9
Cc1cc(OCC(=O)O)c(Cl)cc1Cl :: -11.7
Nc1c(S(=O)(=O)O)cc(S(=O)(=O)O)c2ccc(N=Nc3ccccc3)c(O)c12 :: -15.7

----------
Test: NCI Yeast Anticancer Drug Screen. Data for the mec2-1 strain (AID 157)
Details: S. cerevisiae mec2-1 strain, at 50.0 µM, hits give high values
The panel holds about 79,000 compounds, 15% with a hit somewhere; the sample as a whole holds those more often.
readout type: growth inhibition (%)

O=C(NCc1ccncc1)Nc1ccc(Cc2ccc(NC(=O)NCc3ccncc3)cc2)cc1 :: -19.1
CCCCCC(=O)NC1CCCCC1 :: 13.6
COc1ccc(C2C(Cl)C(=O)N2NC(=O)Cc2ccccc2)cc1 (stereo unspecified) :: -11.9
c1ccc(C(Sc2c[nH]c3ccccc23)(c2ccccc2)c2ccccc2)cc1 (tested in a mixture with another compound) :: -11.7
COc1cc2c[n+](C)c3c(c2cc1OC)Cc1cc2c(cc1-3)OCO2 :: -13.2
Cc1c(C(C)c2[nH]c3ccccc3c2C)[nH]c2ccccc12 :: 0.45
